We begin with a simple list: items and their reported Relative Inhibition of IL-13 induced pSTAT6 IC50.
- tested_on: T1, hIL-4Rα on cells (human, UniProt P24394 26-825)
- T1 sequence: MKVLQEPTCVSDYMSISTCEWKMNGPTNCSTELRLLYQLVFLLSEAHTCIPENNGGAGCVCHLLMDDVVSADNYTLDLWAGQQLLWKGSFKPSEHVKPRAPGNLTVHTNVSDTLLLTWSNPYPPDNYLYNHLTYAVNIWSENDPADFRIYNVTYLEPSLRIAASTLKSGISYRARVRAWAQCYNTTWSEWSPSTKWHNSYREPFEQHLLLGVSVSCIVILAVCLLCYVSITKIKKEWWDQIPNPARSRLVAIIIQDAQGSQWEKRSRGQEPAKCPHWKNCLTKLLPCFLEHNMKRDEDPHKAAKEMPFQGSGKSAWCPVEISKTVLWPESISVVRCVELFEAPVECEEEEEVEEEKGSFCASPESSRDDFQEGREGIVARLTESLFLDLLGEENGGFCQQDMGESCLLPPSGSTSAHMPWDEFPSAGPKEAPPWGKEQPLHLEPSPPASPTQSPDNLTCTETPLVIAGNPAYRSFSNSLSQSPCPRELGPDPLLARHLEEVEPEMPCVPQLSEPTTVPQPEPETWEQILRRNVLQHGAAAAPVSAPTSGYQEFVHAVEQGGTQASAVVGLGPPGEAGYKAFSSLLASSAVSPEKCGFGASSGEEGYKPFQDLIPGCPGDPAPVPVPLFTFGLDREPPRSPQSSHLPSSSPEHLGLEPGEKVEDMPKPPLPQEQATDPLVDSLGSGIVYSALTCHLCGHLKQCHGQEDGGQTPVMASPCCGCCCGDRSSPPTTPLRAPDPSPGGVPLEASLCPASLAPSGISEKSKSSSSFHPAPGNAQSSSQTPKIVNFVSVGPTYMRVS
- protocol_details: cell-based or functional assay

binder | assay_result
Construct 44 (mAb485) (antibody, IgG4, V domains shown, VH/VL only) VH: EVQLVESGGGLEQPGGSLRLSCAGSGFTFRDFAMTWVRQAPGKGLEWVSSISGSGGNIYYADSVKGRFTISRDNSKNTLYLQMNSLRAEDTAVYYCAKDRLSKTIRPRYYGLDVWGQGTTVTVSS VL: DIVMTQSPLSLPVTPGEPASISCRSTQSLLYSIGKNYVDWYLQKSGQSPQLLIYEGNNRASGVPDRFSGSGSGTDFTLKISRVEAEDVGFYYCMQSLTSPYTFGQGTKLEIK | 3.76 relative to dupilumab
Construct 4 (mAb413) (antibody, IgG4, V domains shown, VH/VL only) VH: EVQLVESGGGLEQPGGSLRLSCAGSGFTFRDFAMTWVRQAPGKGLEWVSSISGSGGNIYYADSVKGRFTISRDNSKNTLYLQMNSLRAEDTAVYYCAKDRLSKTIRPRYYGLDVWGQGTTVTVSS VL: DIVMTQSPLSLPVTPGEPASISCTASQSLLYSIGYNYVDWYLQKSGQSPQLLIYLGNNRATGVPDRFSGSGSGTDFTLKISRVEAEDVGFYYCMQALTTPYTFGQGTKLEIK | 0.862 relative to dupilumab

API: the following record is the query input.
stdin: Which measured Relative Inhibition of IL-13 induced pSTAT6 IC50 value corresponds to Construct 8 (mAb417) (antibody, IgG4, V domains shown, VH/VL only) VH: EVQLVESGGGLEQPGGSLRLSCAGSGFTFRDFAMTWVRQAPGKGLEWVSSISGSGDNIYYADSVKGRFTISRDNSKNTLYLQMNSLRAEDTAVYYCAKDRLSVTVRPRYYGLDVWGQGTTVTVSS VL: DIVMTQSPLSLPVTPGEPASISCRSTQSLLYSIGKNYVDWYLQKSGQSPQLLIYLGNNRATGVPDRFSGSGSGTDFTLKISRVEAEDVGFYYCMQALTTPYAFGQGTKLEIK ?
stdout: 2.1 relative to dupilumab

The measurements presented in this section are drawn from patent US20260193366A1.
